These measurements were taken from paper PMC3823766.

- Study target: T1, GST-hnRNP L (UniProt P14866 1-589)
- T1 sequence: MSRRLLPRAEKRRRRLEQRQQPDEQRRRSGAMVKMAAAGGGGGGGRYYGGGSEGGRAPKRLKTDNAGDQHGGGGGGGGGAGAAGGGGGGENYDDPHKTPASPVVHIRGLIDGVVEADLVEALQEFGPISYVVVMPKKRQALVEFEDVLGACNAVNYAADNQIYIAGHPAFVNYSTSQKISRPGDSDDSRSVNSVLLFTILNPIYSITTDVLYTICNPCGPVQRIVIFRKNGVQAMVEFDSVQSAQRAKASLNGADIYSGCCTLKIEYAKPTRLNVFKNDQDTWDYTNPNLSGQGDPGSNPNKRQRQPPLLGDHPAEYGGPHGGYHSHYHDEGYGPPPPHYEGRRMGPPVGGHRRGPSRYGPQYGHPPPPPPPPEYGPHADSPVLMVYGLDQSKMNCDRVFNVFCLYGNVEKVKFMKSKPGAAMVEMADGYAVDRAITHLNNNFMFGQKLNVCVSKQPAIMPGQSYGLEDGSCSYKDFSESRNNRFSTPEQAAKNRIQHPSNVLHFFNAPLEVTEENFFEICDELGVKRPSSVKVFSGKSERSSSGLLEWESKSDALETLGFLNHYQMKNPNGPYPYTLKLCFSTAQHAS
- Procedure details: EMSA; EMSA: ~1 fmol 32P RNA (0.1 nM), 4.5% native PAGE; binding buffer as in cited ref 9, not given; BC50 values printed only in figures
- Condition context: protein: recombinant; label: 32P-CTP body label

| Binder | Kd |
| --- | --- |
| CUUACCUACUCACACCACUGCAUUCUCACCCGCAAGCACC (ssRNA) [ESS1 wild type] | ~2 nM |
